Biological target: GR complex
Assay: modulation of [35S]TBPS binding in rat cerebral cortex P2 homogenate
Set-up: species or system Sprague-Dawley rats
Details: concentration of compounds to inhibit 50% of control [35S]TBPS binding; 2 nM [35S]TBPS, 25°C, 90 minutes; unit inferred
Description: We performed several experiments to determine the nature of the modulation of [^35S]TBPS as affected by the compounds of the invention. These procedures were performed as follows: Brains from male Sprague-Dawley rats were removed immediately following sacrifice and the cerebral cortices dissected over ice. […] Briefly, the cortices were gently homogenized in 0.32 M sucrose followed by centrifugation at 1000 x g for 10 minutes. The supernatant was collected and centrifuged at 9000 x g for 20 minutes. […]
pIC50: −log10 of the molar value.
Examples of molecules with documented pIC50 follow.
MEASURED_QUANTITY: pIC50

[[record]]
molecule = "C#C[C@@]1(O)CC[C@@]2(C)[C@H](CC[C@@H]3[C@@H]2CC[C@]2(C)[C@@H](C(=O)COC(C)=O)CC[C@@H]32)C1"
measured_number = 6.60

[[record]]
molecule = "CCC(=O)[C@H]1CC[C@H]2[C@@H]3CC[C@H]4C[C@](C)(O)CC[C@]4(C)[C@H]3CC[C@]12C"
measured_number = 7.05

[[record]]
molecule = "C[C@H](O)[C@H]1CC[C@H]2[C@@H]3CC[C@H]4C[C@H](O)CC[C@]4(C)[C@H]3CC[C@]12C [3α,20a(S)-dihydroxy-5α-pregnane, 3α,20α(S)-Dihydroxy-5α-pregnane]"
measured_number = 7.00

[[record]]
molecule = "CC(=O)[C@H]1CC[C@H]2[C@@H]3CC[C@H]4C[C@](O)(C(F)(F)F)CC[C@]4(C)[C@H]3CC[C@]12C"
measured_number = 6.61

[[record]]
molecule = "CC(=O)[C@H]1CC[C@H]2[C@@H]3CC[C@H]4C[C@](C)(O)CC[C@]4(C)[C@H]3CC[C@]12C [3α-hydroxy-3β-methyl-5α-pregnan-20-one]"
measured_number = 7.21

[[record]]
molecule = "C#C[C@@]1(O)CC[C@@]2(C)[C@H](CC[C@@H]3[C@@H]2CC[C@]2(C)[C@@H](C(=O)COC(=O)CCC(=O)O)CC[C@@H]32)C1"
measured_number = 6.27

